Items are presented alongside their recorded melting point.

Cc1cc2c(cc1O)C(C)(C)CC1(CC(C)(C)c3cc(OCCCC(=O)O)c(C)cc3O1)O2 (racemic) = 173 to 174 °C
Cc1cc2c(cc1O)C(C)(C)CC1(CC(C)(C)c3cc(OCC(=O)O)c(C)cc3O1)O2 (racemic) = 227 to 229 °C

Here's the next entry for you.
// query melting point value for entry Cc1cc2c(cc1O)C(C)(C)CC1(CC(C)(C)c3cc(OCC(N)=O)c(C)cc3O1)O2 (racemic)
220 to 221 °C

====

Items are presented alongside their recorded melting point.

Example cases with answers are listed next.
C=CCc1c(O)c(C)cc2c1C(C)(C)CC1(CC(C)(C)c3c(cc(C)c(O)c3CC=C)O1)O2 (racemic) [Example 23] = 95 to 97 °C
C=CCOc1cc2c(cc1C)OC1(CC(C)(C)c3cc(O)c(C)cc3O1)CC2(C)C (racemic) = 143 to 144 °C
Cc1cc2c(cc1OCC(=O)O)C(C)(C)CC1(CC(C)(C)c3cc(OCC(=O)O)c(C)cc3O1)O2 (racemic) [Example 21] = > 260 °C
COc1cc2c(cc1C)OC1(CC2(C)C)CC(C)(C)c2cc(OCC(=O)O)c(C)cc2O1 (racemic) [Example 20] = 195 to 197 °C

// query melting point value for entry C=CCOc1cc2c(cc1C)OC1(CC2(C)C)CC(C)(C)c2cc(OCC=C)c(C)cc2O1 [Example 16]
98 to 100 °C

// query melting point value for entry Cc1cc(CO)n(CCCOc2cc3c(cc2C)OC2(CC(C)(C)c4cc(O)c(C)cc4O2)CC3(C)C)n1 (racemic) [Example 18]
208 to 210 °C

// query melting point value for entry Cc1cc2c(cc1O)C(C)(C)CC1(CC(C)(C)c3cc(O)c(C)cc3O1)O2 [Example 27]
165 to 166 °C

====

Items are presented alongside their recorded melting point.

Cc1cc2c(cc1O)C(C)(C)CC1(CC(C)(C)c3cc(OCCCn4nc(CO)cc4C)c(C)cc3O1)O2 (racemic) [Example 17] = 217 to 219 °C
Cc1cc2c(cc1O)C(C)(C)CC1(CC(C)(C)c3cc(OCCCO)c(C)cc3O1)O2 (racemic) [Example 3] = 175 to 177 °C

// query melting point value for entry Cc1cc2c(cc1O)C(C)(C)CC1(CC(C)(C)c3cc(OC[C@@H](O)CO)c(C)cc3O1)O2 (mixture of isomers) [Example 5]
218 to 220 °C

Measured values drawn from patent US20080280974A1 for this set.
